Value source: ChEMBL document CHEMBL1961873

study.target: Inhibitor of nuclear factor kappa-B kinase subunit alpha (Homo sapiens) (UniProt O15111);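 note: mean percent inhibition from GSK PKIS profiling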
Sequence (whole entry): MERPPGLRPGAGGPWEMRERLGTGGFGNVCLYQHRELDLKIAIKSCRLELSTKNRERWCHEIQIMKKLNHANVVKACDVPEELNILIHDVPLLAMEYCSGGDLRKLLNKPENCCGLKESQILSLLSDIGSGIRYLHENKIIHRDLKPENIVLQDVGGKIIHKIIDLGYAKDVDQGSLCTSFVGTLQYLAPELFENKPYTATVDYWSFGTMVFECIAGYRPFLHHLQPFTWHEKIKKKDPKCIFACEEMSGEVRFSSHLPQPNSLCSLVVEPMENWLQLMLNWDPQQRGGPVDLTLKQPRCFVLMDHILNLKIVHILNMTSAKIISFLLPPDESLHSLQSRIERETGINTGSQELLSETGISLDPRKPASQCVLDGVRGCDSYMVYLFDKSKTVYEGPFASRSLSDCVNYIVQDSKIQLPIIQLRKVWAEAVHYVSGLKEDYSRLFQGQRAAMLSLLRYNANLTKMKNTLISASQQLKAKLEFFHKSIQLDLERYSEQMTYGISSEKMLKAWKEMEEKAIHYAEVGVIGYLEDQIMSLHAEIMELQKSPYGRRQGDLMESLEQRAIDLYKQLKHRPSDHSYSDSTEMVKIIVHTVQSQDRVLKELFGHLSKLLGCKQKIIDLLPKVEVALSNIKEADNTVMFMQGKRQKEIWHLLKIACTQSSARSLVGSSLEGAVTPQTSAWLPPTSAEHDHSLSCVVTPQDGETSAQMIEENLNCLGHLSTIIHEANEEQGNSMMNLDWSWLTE
condition.context: at 0.1 µM
measured.attribute: inhibition (%)
Enter your answer as a number in %; do not include the unit.

Req: Name the reported inhibition value associated with the compound `O=C(O[C@H]1CN[C@H](C#Cc2cc3ncnc(Nc4ccc(Cc5ccccc5)cc4)c3s2)C1)N1CCOCC1`
Resp: 6.44

Req: What about `CCN(CC)S(=O)(=O)c1ccc(OC)c(Nc2ncc(-c3ccccc3)o2)c1` ?
Resp: 3.54

Req: What about `NS(=O)(=O)c1ccc(Nc2ncc(-c3ccccc3)o2)cc1` ?
Resp: 6.23

Req: What about `CNC(=O)c1cncc(/C=C/c2ccccc2Cl)c1` ?
Resp: 2.99

Req: What about `Nc1nc(-c2ccc(F)cc2)c(-c2ccc3ncccc3n2)s1` ?
Resp: 2.92

Req: What about `FC(F)(F)c1cccc(-c2nn3ncccc3c2-c2ccnc(Nc3ccc4c(c3)OCCO4)n2)c1` ?
Resp: 3.23

Req: What about `COc1cc(/C=N/Nc2ncnc3[nH]ncc23)ccc1O` ?
Resp: 14.9

Req: What about `COc1cc(Nc2nccc(Nc3ccc4c(C)n[nH]c4c3)n2)cc(OC)c1OC` ?
Resp: 2.2

Req: What about `Fc1cccc(COc2ccc(Nc3ncnc4sc(-c5ccco5)cc34)cc2Cl)c1` ?
Resp: 8.13

Req: What about `NC(=O)c1sc(-n2cnc3ccc(C(F)(F)F)cc32)cc1OCc1ccccc1Br` ?
Resp: 12.5

Req: What about `CN1CCC(n2cnc(-c3ccc(F)cc3)c2-c2ccnc(Nc3ccccc3)n2)CC1` ?
Resp: 6.78

Req: What about `N#Cc1c(NC(=O)CN2CCOCC2)sc2c1CCCC2` ?
Resp: 6.78

Req: What about `COc1ccc(-c2nn3ncccc3c2-c2ccnc(Nc3ccc4c(c3)OCCO4)n2)cc1` ?
Resp: 6.88

Req: What about `COc1ccc(CNC(=O)c2ccc(-c3cc(-c4nnc(C)o4)ccc3C)cc2)cc1` ?
Resp: 2

Req: What about `COc1cc(N2CCN(C(C)C)CC2)ccc1Nc1nc(Nc2ccc(F)cc2C(N)=O)c2cc[nH]c2n1` ?
Resp: 0.45

Req: What about `CS(=O)(=O)CCNCc1ccc(-c2ccc3ncnc(Nc4ccc(OCc5ccccc5)c(C(F)(F)F)c4)c3c2)o1` ?
Resp: 5.21

Req: What about `CCCN1CCC(c2ccc(Nc3nc(Nc4cc(F)ccc4C(N)=O)c4cc[nH]c4n3)c(OC)c2)CC1` ?
Resp: 2.7

Req: What about `Fc1ccc(-c2nn3ncccc3c2-c2ccnc(Nc3ccc4c(c3)OCCO4)n2)cc1` ?
Resp: 9.88

Req: What about `O=S(=O)(CCNCc1ccc(-c2ccc3ncnc(Nc4ccc(OCc5cccc(F)c5)c(Cl)c4)c3c2)o1)c1ccccc1` ?
Resp: 2.96

Req: What about `O=C(Nc1n[nH]c2cc(-c3ccc(F)cc3)ccc12)C1CC1` ?
Resp: 4.81

Req: What about `COc1ccc(-c2cc(-c3c[nH]nc3-c3ccccn3)ccn2)cc1` ?
Resp: -3.06

Req: What about `CCN1CCC(CC(=O)Nc2n[nH]c3nnc(-c4cccc(F)c4F)cc23)CC1` ?
Resp: 4.71

Req: What about `Fc1ccc(-c2nn3ccccc3c2-c2ccncc2)cc1` ?
Resp: 2.86

Req: What about `COc1ccc(-c2cc3c(N)ncnc3o2)cc1` ?
Resp: -1.6

Req: What about `CC(C)COC(=O)c1ccc2c(c1)/C(=C/Nc1ccc(S(N)(=O)=O)cc1)C(=O)N2` ?
Resp: -1.06

Req: What about `NS(=O)(=O)c1ccc(N/N=C2\C(=O)Nc3ccc4ncccc4c32)cc1` ?
Resp: 9.67

Req: What about `CC(=O)Nc1cccc(C#Cc2cncnc2Nc2ccc(OCc3cccc(F)c3)c(Cl)c2)c1` ?
Resp: 3.13

Req: What about `[O-][S+]1CCN(Cc2ccc(-c3ccc4ncnc(Nc5ccc(OCc6cccc(F)c6)c(Cl)c5)c4c3)o2)CC1` ?
Resp: 8.15

Req: What about `CCn1c(-c2nonc2N)nc2c(C#CC(C)(C)O)nc(OC[C@H](N)c3ccccc3)cc21` ?
Resp: 3.2

Req: What about `COc1ccc2[nH]c3c4[nH]c5ccc(OC)cc5c4c4c(c3c2c1)C(=O)NC4=O` ?
Resp: 5.28

Req: What about `CNC(=O)c1cc(-c2ccc(F)cc2)cc(-c2ccc(S(=O)(=O)N3CCCC3)cc2)c1N` ?
Resp: 7.04

Req: What about `CCn1c(-c2nonc2N)nc2ccccc21` ?
Resp: -3.92

Req: What about `c1cc(-c2cnn3nc(N4CCOCC4)ccc23)nc(NC2CC2)n1` ?
Resp: 6.71

Req: What about `COc1cccc(-n2ncc3c(N/N=C/c4ccc(F)cc4)ncnc32)c1` ?
Resp: 12.3

Req: What about `COc1cc2ncn(-c3cc(OCc4ccccc4C(F)(F)F)c(C(=O)N(C)C)s3)c2cc1OC` ?
Resp: 5.36

Req: What about `COC(=O)c1sc(-n2cnc3cc(OC)c(OC)cc32)cc1OCc1ccccc1C(F)(F)F` ?
Resp: 3.9
